assay: absolute recovery over mixed-bed multilayer solid-phase extraction; higher = better recovery; conditions: wastewater influent; enrichment method: SPE
readout-label: absolute recovery (%)
Answers are plain numbers, in %.

Would you please look over these solved cases?
compound | reading-unit | absolute recovery
CCNC(=O)C(C)OC(=O)Nc1ccccc1 (centres undefined) | % | 88.7
CC(=O)Nc1ccc(S(=O)(=O)[N-]c2nccs2)cc1 | % | 90
O=C1Nc2ccc(Cl)cc2C(c2ccccc2Cl)=NC1O (centres undefined) | % | 87.4

Now for a further compound.
Item "CC(C)c1ccc(NC(=O)N(C)C)cc1" has what recorded absolute recovery?
92.5

* * *

Kindly state absolute recovery for each of the entries shown.
experiment: absolute recovery over mixed-bed multilayer solid-phase extraction; higher = better recovery; details: surface water; enrichment method: SPE
Numbers only, in %.

molecule | absolute recovery (%)
COc1nc(NC(=O)[N-]S(=O)(=O)c2ccccc2C(F)(F)F)nc(C(F)(F)F)n1 | 93.4
Cc1cc(C)nc(NC(=O)[N-]S(=O)(=O)c2ccccc2C(=O)OC2COC2)n1 | 93.3
CC([NH3+])C(O)c1ccccc1 (stereo not given) | 70.2
CN1CC[NH+]=C(c2ccccc2)c2cc(Cl)ccc21 | 95.2

// returns reported absolute recovery for input "COc1cc(C)c(C(=O)c2c(OC)ccc(Br)c2C)c(OC)c1OC"
92.4
